Property: IC50; scope: individual compounds
# Tested on: 922993-354-T-J3-PDC complex spheroids, viability
# procedure.text: Anticancer human tumor 922993-354-T-J3-PDC patient-derived endometrial carcinoma cell line growth inhibition [GQUAD]
# test.settings: curve of first compound; second compound 1 µM

Check out these entries, answers already filled in.
compound	target.desc	measure.name	observed.value
COc1cc(C2c3cc4c(cc3C(OC3OC5COC(C)OC5C(O)C3O)C3COC(=O)C23)OCO4)cc(OC)c1O (stereo unspecified) + Cc1cnc(CNC(=O)c2c(=O)c3ccc(N4CCCN(C)CC4)nc3n3c2sc2ccccc23)cn1	922993-354-T-J3-PDC complex spheroids, viability	IC50	< 0.0316 µM
COc1cccc2c1C(=O)c1c(O)c3c(c(O)c1C2=O)CC(O)(C(=O)CO)CC3OC1CC(N)C(O)C(C)O1 (stereo unspecified) + Cc1[nH]c2ccc(F)cc2c1-c1nc2c3cccnc3c3ncccc3c2[nH]1	922993-354-T-J3-PDC complex spheroids, viability	IC50	> 10 µM
COc1ccc([C@@H](O)c2cc(-c3ncnc4cc(N5CCOCC5)ccc34)c(F)cc2Cl)nn1 + Cc1[nH]c2ccc(F)cc2c1-c1nc2c3cccnc3c3ncccc3c2[nH]1	922993-354-T-J3-PDC complex spheroids, viability	IC50	> 10 µM
CC1COCCN1c1cc(-c2ccnn2C)c2ccnc(-c3ccn[nH]3)c2n1 (stereo unspecified) + CN(C)c1ccc(Nc2c3ccc(NC(=O)CCN4CCCC4)cc3nc3cc(NC(=O)CCN4CCCC4)ccc23)cc1	922993-354-T-J3-PDC complex spheroids, viability	IC50	0.278 µM
O=c1[nH]cc(F)c(=O)[nH]1 + CN(C)c1ccc(Nc2c3ccc(NC(=O)CCN4CCCC4)cc3nc3cc(NC(=O)CCN4CCCC4)ccc23)cc1	922993-354-T-J3-PDC complex spheroids, viability	IC50	5.83 µM

Challenge: Give the measured IC50 for CCCS(=O)(=O)Nc1ccc(F)c(C(=O)c2c[nH]c3ncc(-c4ccc(Cl)cc4)cc23)c1F + Cc1[nH]c2ccc(F)cc2c1-c1nc2c3cccnc3c3ncccc3c2[nH]1
Response given: > 10 µM

Challenge: Give the value of IC50 reported for the following: O=C(c1cc(Cc2n[nH]c(=O)c3ccccc23)ccc1F)N1CCN(C(=O)C2CC2)CC1 + CN(C)c1ccc(Nc2c3ccc(NC(=O)CCN4CCCC4)cc3nc3cc(NC(=O)CCN4CCCC4)ccc23)cc1
Response given: > 10 µM

###

# System: 922993-354-T-J3-PDC complex spheroids, viability
# procedure.text: Anticancer human tumor 922993-354-T-J3-PDC cell line growth inhibition [GQUAD];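 note: spheroids exposed to compounds for seven days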;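 for viability, T/C: 100% = DMSO vehicle control viability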
# test.settings: second compound 1 µM; first compound 10 µM; stronger effect = lower value
Here, each record is paired with measured viability, T/C data.
Express it in %; write the number only.

Use the examples below as a reference point.
molecule	viability, T/C [%]
COc1cc(C2c3cc4c(cc3C(OC3OC5COC(C)OC5C(O)C3O)C3COC(=O)C23)OCO4)cc(OC)c1O (stereo not given) + Cc1[nH]c2ccc(F)cc2c1-c1nc2c3cccnc3c3ncccc3c2[nH]1	71.4
C#Cc1c(F)ccc2cc(O)cc(-c3ncc4c(N5CC6CCC(C5)N6)nc(OCC56CCCN5CC(F)C6)nc4c3F)c12 (stereo not given) + Cc1cnc(CNC(=O)c2c(=O)c3ccc(N4CCCN(C)CC4)nc3n3c2sc2ccccc23)cn1	44.5
CC(C)(O)C1CCC(Nc2ccc3ncc(-c4cccc(C(F)(F)F)c4)n3n2)CC1 (stereo not given) + CN(C)c1ccc(Nc2c3ccc(NC(=O)CCN4CCCC4)cc3nc3cc(NC(=O)CCN4CCCC4)ccc23)cc1	61.2
C#Cc1c(F)ccc2cc(O)cc(-c3ncc4c(N5CC6CCC(C5)N6)nc(OCC56CCCN5CC(F)C6)nc4c3F)c12 (stereo not given) + Cc1[nH]c2ccc(F)cc2c1-c1nc2c3cccnc3c3ncccc3c2[nH]1	114

Turning now to a further record.
Challenge: Look up 922993-354-T-J3-PDC complex spheroids, viability data: viability, T/C of COc1ccc([C@@H](O)c2cc(-c3ncnc4cc(N5CCOCC5)ccc34)c(F)cc2Cl)nn1 + CN(C)c1ccc(Nc2c3ccc(NC(=O)CCN4CCCC4)cc3nc3cc(NC(=O)CCN4CCCC4)ccc23)cc1 , then report it.
Response given: 79.2
